- EXPERIMENTAL_DETAILS: in vitro
- STUDY_CONDITIONS: human, hela cells, % viability
PARAMETER: viability at 28.5 h, 10 µM (%)

[[record]]
compound = "Cc1ccc2c(c1)C1(CC(=O)N(C)C1=O)C(=O)N2CCCOc1ccccc1 (centres unmarked) [CBK075496]"
parameter = "viability at 28.5 h, 10 µM"
value_observed = 98.2

[[record]]
compound = "Cc1cc(CC(=O)Nc2ccc3[nH]ccc3c2)on1 [CBK159690]"
parameter = "viability at 28.5 h, 10 µM"
value_observed = 103

[[record]]
compound = "CCN(C)c1c(C)nc2c(OCc3ccccc3C(=O)OC)cccn12 [CBK147321]"
parameter = "viability at 28.5 h, 10 µM"
value_observed = 95.5

[[record]]
compound = "CCN1CCN(c2ccc3nnc(C(C)C)n3n2)CC1 [CBK287974]"
parameter = "viability at 28.5 h, 10 µM"
value_observed = 88.3

[[record]]
compound = "O=C(O)CCCOc1nc(C2CC2)cc(C(F)(F)F)n1 [CBK286886]"
parameter = "viability at 28.5 h, 10 µM"
value_observed = 92


Reference source: paper PMC12040169
